- Assay Method Text: in vitro
- Assay Conditions: human, plasma
Measured Quantity: remaining at 4 h, 10 MBq/200 µL (%)
Answer format: numeric, % implied, no suffix.

{"columns": ["Compound", "remaining at 4 h, 10 MBq/200 µL, %"],
 "data": [
  ["CC(C)C[C@H](NC(=O)[C@H](Cc1ccc(O)cc1)NC(=O)[C@@H](CCCNC(=N)N)NC(=O)[C@@H](CO)NC(=O)[C@H](Cc1ccccc1)NC(=O)[C@H](CC1CCCCC1)NC(=O)[C@H](CC(=O)O)NC(=O)[C@H](CCCCNC(=O)CCOCCOCCOCCOCCNC(=O)c1ccc(CNC(=O)CCCc2ccc(I)cc2)cc1)NC(=O)CN1CCN(CC(=O)O)CCN(CC(=O)O)CCN(CC(=O)O)CC1)C(=O)N[C@@H](Cc1c[nH]c2ccccc12)C(=O)N[C@@H](CO)C(N)=O [[^177Lu]Lu-uPAR-03, metal not drawn]", 99]
]}

From here, focus on the item given below.
Input: Look at this compound and give its reported remaining at 4 h, 10 MBq/200 µL. CC(C)C[C@H](NC(=O)[C@H](Cc1ccc(O)cc1)NC(=O)[C@@H](CCCNC(=N)N)NC(=O)[C@@H](CO)NC(=O)[C@H](Cc1ccccc1)NC(=O)[C@H](CC1CCCCC1)NC(=O)[C@H](CC(=O)O)NC(=O)[C@H](CCCCNC(=O)CCOCCOCCOCCOCCNC(=O)CCCc1ccc(I)cc1)NC(=O)CN1CCN(CC(=O)O)CCN(CC(=O)O)CCN(CC(=O)O)CC1)C(=O)N[C@@H](Cc1c[nH]c2ccccc12)C(=O)N[C@@H](CO)C(N)=O [[^177Lu]Lu-uPAR-02, metal not drawn]
Output: 99

====

- Assay Method Text: Biodistribution studies in HEK-uPAR xenograft-bearing nude mice
- Assay Conditions: female, CD1/nude, mouse, pancreas, 5 MBq (0.5 nmol), total radioactivity, 24 h p.i.; 5 MBq, 0.5 nmol; decay-corrected; average ± SD, n=3 animals
Measured Quantity: tissue uptake at 24 h (%ID/g)
Answer format: numeric, %ID/g implied, no suffix.

Here are 3 compounds together with their reported answers.
{"columns": ["Compound", "Scale Unit", "tissue uptake at 24 h"],
 "data": [
  ["CC(C)C[C@H](NC(=O)[C@H](Cc1ccc(O)cc1)NC(=O)[C@@H](CCCNC(=N)N)NC(=O)[C@@H](CO)NC(=O)[C@H](Cc1ccccc1)NC(=O)[C@H](CC1CCCCC1)NC(=O)[C@H](CC(=O)O)NC(=O)[C@H](CCCCNC(=O)CCCc1ccc(I)cc1)NC(=O)CN1CCN(CC(=O)O)CCN(CC(=O)O)CCN(CC(=O)O)CC1)C(=O)N[C@@H](Cc1c[nH]c2ccccc12)C(=O)N[C@@H](CO)C(N)=O [[^177Lu]Lu-uPAR-01, metal not drawn]", "%ID/g", 0.77],
  ["CC(C)C[C@H](NC(=O)[C@H](Cc1ccc(O)cc1)NC(=O)[C@@H](CCCNC(=N)N)NC(=O)[C@@H](CO)NC(=O)[C@H](Cc1ccccc1)NC(=O)[C@H](CC1CCCCC1)NC(=O)[C@H](CC(=O)O)NC(=O)[C@H](CCCCNC(=O)CCCc1ccc(I)cc1)NC(=O)[C@@H](N)CCCCNC(=O)CN1CCN(CC(=O)O)CCN(CC(=O)O)CCN(CC(=O)O)CC1)C(=O)N[C@@H](Cc1c[nH]c2ccccc12)C(=O)N[C@@H](CO)C(N)=O [[^177Lu]Lu-uPAR-04, metal not drawn]", "%ID/g", 1],
  ["CC(C)C[C@H](NC(=O)[C@H](Cc1ccc(O)cc1)NC(=O)[C@@H](CCCNC(=N)N)NC(=O)[C@@H](CO)NC(=O)[C@H](Cc1ccccc1)NC(=O)[C@H](CC1CCCCC1)NC(=O)[C@H](CC(=O)O)NC(=O)CCOCCOCCOCCOCCNC(=O)[C@H](CCCCNC(=O)CCCc1ccc(I)cc1)NC(=O)CN1CCN(CC(=O)O)CCN(CC(=O)O)CCN(CC(=O)O)CC1)C(=O)N[C@@H](Cc1c[nH]c2ccccc12)C(=O)N[C@@H](CO)C(N)=O [[^177Lu]Lu-uPAR-05, metal not drawn]", "%ID/g", 0.62]
]}

From here, focus on the item given below.
Input: Look at this compound and give its reported tissue uptake at 24 h. CC(C)C[C@H](NC(=O)[C@H](Cc1ccc(O)cc1)NC(=O)[C@@H](CCCNC(=N)N)NC(=O)[C@@H](CO)NC(=O)[C@H](Cc1ccccc1)NC(=O)[C@H](CC1CCCCC1)NC(=O)[C@H](CC(=O)O)NC(=O)CN1CCN(CC(=O)O)CCN(CC(=O)O)CCN(CC(=O)O)CC1)C(=O)N[C@@H](Cc1c[nH]c2ccccc12)C(=O)N[C@@H](CO)C(N)=O [[^177Lu]Lu-DOTA-AE105, metal not drawn, reference compound]
Output: 0.06

====

- Assay Method Text: n-Octanol/PBS distribution coefficients (logD values)
- Assay Conditions: n-octanol/PBS pH 7.4, pH 7.4
Measured Quantity: logD
// no unit string in output, number only

Here are 3 molecules together with their reported answers.
{"columns": ["Molecule", "logD"],
 "data": [
  ["CC(C)C[C@H](NC(=O)[C@H](Cc1ccc(O)cc1)NC(=O)[C@@H](CCCNC(=N)N)NC(=O)[C@@H](CO)NC(=O)[C@H](Cc1ccccc1)NC(=O)[C@H](CC1CCCCC1)NC(=O)[C@H](CC(=O)O)NC(=O)CN1CCN(CC(=O)O)CCN(CC(=O)O)CCN(CC(=O)O)CC1)C(=O)N[C@@H](Cc1c[nH]c2ccccc12)C(=O)N[C@@H](CO)C(N)=O [[^177Lu]Lu-DOTA-AE105, metal not drawn, reference compound]", -1.38],
  ["CC(C)C[C@H](NC(=O)[C@H](Cc1ccc(O)cc1)NC(=O)[C@@H](CCCNC(=N)N)NC(=O)[C@@H](CO)NC(=O)[C@H](Cc1ccccc1)NC(=O)[C@H](CC1CCCCC1)NC(=O)[C@H](CC(=O)O)NC(=O)[C@H](CCCCNC(=O)CCCc1ccc(I)cc1)NC(=O)CN1CCN(CC(=O)O)CCN(CC(=O)O)CCN(CC(=O)O)CC1)C(=O)N[C@@H](Cc1c[nH]c2ccccc12)C(=O)N[C@@H](CO)C(N)=O [[^177Lu]Lu-uPAR-01, metal not drawn]", 0.78],
  ["CC(C)C[C@H](NC(=O)[C@H](Cc1ccc(O)cc1)NC(=O)[C@@H](CCCNC(=N)N)NC(=O)[C@@H](CO)NC(=O)[C@H](Cc1ccccc1)NC(=O)[C@H](CC1CCCCC1)NC(=O)[C@H](CC(=O)O)NC(=O)[C@H](CCCCNC(=O)CCCc1ccc(I)cc1)NC(=O)[C@@H](N)CCCCNC(=O)CN1CCN(CC(=O)O)CCN(CC(=O)O)CCN(CC(=O)O)CC1)C(=O)N[C@@H](Cc1c[nH]c2ccccc12)C(=O)N[C@@H](CO)C(N)=O [[^177Lu]Lu-uPAR-04, metal not drawn]", -0.29]
]}

From here, focus on the item given below.
Input: Look at this molecule and give its reported logD. CC(C)C[C@H](NC(=O)[C@H](Cc1ccc(O)cc1)NC(=O)[C@@H](CCCNC(=N)N)NC(=O)[C@@H](CO)NC(=O)[C@H](Cc1ccccc1)NC(=O)[C@H](CC1CCCCC1)NC(=O)[C@H](CC(=O)O)NC(=O)CCOCCOCCOCCOCCNC(=O)[C@H](CCCCNC(=O)CCCc1ccc(I)cc1)NC(=O)CN1CCN(CC(=O)O)CCN(CC(=O)O)CCN(CC(=O)O)CC1)C(=O)N[C@@H](Cc1c[nH]c2ccccc12)C(=O)N[C@@H](CO)C(N)=O [[^177Lu]Lu-uPAR-05, metal not drawn]
Output: 0.24

====

- Assay Method Text: Biodistribution studies in HEK-uPAR xenograft-bearing nude mice
- Assay Conditions: female, CD1/nude, mouse, brain, 5 MBq (0.5 nmol), total radioactivity, 4 h p.i.; 5 MBq, 0.5 nmol; decay-corrected; average ± SD, n=3 animals
Measured Quantity: tissue uptake at 4 h (%ID/g)
Answer format: numeric, %ID/g implied, no suffix.

{"columns": ["Molecule", "Endpoint Value"],
 "data": [
  ["CC(C)C[C@H](NC(=O)[C@H](Cc1ccc(O)cc1)NC(=O)[C@@H](CCCNC(=N)N)NC(=O)[C@@H](CO)NC(=O)[C@H](Cc1ccccc1)NC(=O)[C@H](CC1CCCCC1)NC(=O)[C@H](CC(=O)O)NC(=O)[C@H](CCCCNC(=O)CCCc1ccc(I)cc1)NC(=O)CN1CCN(CC(=O)O)CCN(CC(=O)O)CCN(CC(=O)O)CC1)C(=O)N[C@@H](Cc1c[nH]c2ccccc12)C(=O)N[C@@H](CO)C(N)=O [[^177Lu]Lu-uPAR-01, metal not drawn]", 0.32],
  ["CC(C)C[C@H](NC(=O)[C@H](Cc1ccc(O)cc1)NC(=O)[C@@H](CCCNC(=N)N)NC(=O)[C@@H](CO)NC(=O)[C@H](Cc1ccccc1)NC(=O)[C@H](CC1CCCCC1)NC(=O)[C@H](CC(=O)O)NC(=O)CCOCCOCCOCCOCCNC(=O)[C@H](CCCCNC(=O)CCCc1ccc(I)cc1)NC(=O)CN1CCN(CC(=O)O)CCN(CC(=O)O)CCN(CC(=O)O)CC1)C(=O)N[C@@H](Cc1c[nH]c2ccccc12)C(=O)N[C@@H](CO)C(N)=O [[^177Lu]Lu-uPAR-05, metal not drawn]", 0.27]
]}

From here, focus on the item given below.
Input: Look at this molecule and give its reported tissue uptake at 4 h. CC(C)C[C@H](NC(=O)[C@H](Cc1ccc(O)cc1)NC(=O)[C@@H](CCCNC(=N)N)NC(=O)[C@@H](CO)NC(=O)[C@H](Cc1ccccc1)NC(=O)[C@H](CC1CCCCC1)NC(=O)[C@H](CC(=O)O)NC(=O)[C@H](CCCCNC(=O)CCCc1ccc(I)cc1)NC(=O)[C@@H](N)CCCCNC(=O)CN1CCN(CC(=O)O)CCN(CC(=O)O)CCN(CC(=O)O)CC1)C(=O)N[C@@H](Cc1c[nH]c2ccccc12)C(=O)N[C@@H](CO)C(N)=O [[^177Lu]Lu-uPAR-04, metal not drawn]
Output: 0.26
